test: physchem; details: pH 7.4 buffer
reported-property: solubility thermodynamic
Numeric answer plus unit only.

>  <query-smiles>
Cc1ccc(Oc2ccc(Nc3ncnc4cccc(O[C@H](C)C(=O)N(C)CCO)c34)cc2C)cn1

>  <solubility thermodynamic>
63.1 µM

$$$$
>  <query-smiles>
Cc1onc(CO)c1C(=O)Nc1nccs1

>  <solubility thermodynamic>
144 µM

$$$$
>  <query-smiles>
Cc1nc(O)c2cc(-c3ccccc3)sc2n1

>  <solubility thermodynamic>
1.8 µM

$$$$

Which measured solubility thermodynamic value corresponds to Cc1ccc(Oc2ccc(Nc3ncnc4[nH]nc(OCCN5CCC(O)CC5)c34)cc2Cl)cn1 ?
28.2 µM

Here is the next compound: Cc1nc(-c2ccc(CN3CCC(N(C)C(=O)Cc4ccc(-n5cnnn5)cc4)CC3)cc2)no1
10.2 µM

* * *

assay: in vitro; conditions: human, plasma, PPB
Mark each entry Yes if its fraction unbound at 5 h sits below 0.03, and No for all others.

Please review the entries below; each comes with its answer.
>  <molecule>
c1ccc2[nH]c(CCc3nc4ccccc4[nH]3)nc2c1

>  <category-label>
No

$$$$
>  <molecule>
CCc1nc2cc(O)ccc2c(Oc2ccc(/C=C/C(=O)O)cc2)c1-c1ccccc1

>  <category-label>
Yes

$$$$
>  <molecule>
O=C(O)COc1ccc(Cl)cc1CN1CCN(S(=O)(=O)c2ccccc2)CC1

>  <category-label>
No

$$$$

Does the reported fraction unbound at 5 h of the following molecule sit strictly below 0.03? CCOc1cc2ncc(C(N)=O)c(Nc3ccc(F)c(Cl)c3)c2cc1N1CCN(C)CC1
No

Input C[C@H]1O[C@@H](n2cnc3c(N)nc(OCC4CC45CC5)nc32)[C@H](O)[C@@H]1O (some centres undefined)
No

Then what about the molecule N#Cc1cnn2c(N)cc(-c3ccc(F)cc3)nc12 ?
No

Same again, this time with CCCNC(=O)c1cc2c(-n3ccc(C(F)(F)F)n3)c(-c3cncc(C(=O)O)c3)cnc2[nH]1
No

Follow-up entry: CN[C@@H](C)C(=O)N[C@H](C(=O)N(C)[C@H]1CCCN(CCc2ccccc2)C1)C1CCCCC1
No

Then this molecule: N#Cc1ccc(OC2CCN(C[C@H](O)CNC(=O)c3c[nH]c(=O)c4ccccc34)CC2)cc1Cl
No

One more molecule: CN(CCNCCc1ccc(O)c2[nH]c(=O)sc12)C(=O)CCOCCc1ccccc1
No

// next record CC(=O)Nc1ccc2ccn(-c3cc(NCCCCO)n4ncc(C#N)c4n3)c2c1
No

* * *

test: in vitro; conditions: hepatocytes
reported-property: hepatocyte CLint (µL/min/1e6 cells)
Express the result in µL/min/1e6 cells but write the number alone.

# count of solved cases: 2
>  <query-smiles>
O=C(O)C[C@H]1CC[C@H](c2ccc(-c3ccc(Nc4ccc(C(F)(F)F)nc4)cn3)cc2)CC1

>  <unit-text>
µL/min/1e6 cells

>  <hepatocyte CLint>
11.5

$$$$
>  <query-smiles>
CCC(CC)NC(=O)c1cnn(-c2ccccc2)c1NS(=O)(=O)c1ccc(C)cc1

>  <unit-text>
µL/min/1e6 cells

>  <hepatocyte CLint>
47.9

$$$$

Any idea what hepatocyte CLint was measured for N#CC1(NC(=O)[C@@H]2CCCC[C@H]2C(=O)N2CCN(c3nc4ccncc4s3)CC2)CC1 ?
6.61

* * *

test: physchem; conditions: octan-1-ol/water, pH 7.4, LogD7.4
reported-property: logD

Some compounds with known logD results, for comparison:
>  <compound>
Nc1ncnc2c1ncn2Cc1ccccc1

>  <reported-property>
logD

>  <result>
1.53

$$$$
>  <compound>
NS(=O)(=O)c1cc(C(=O)O)cc(N2CCCC2)c1Oc1ccccc1 [PIRETANIDE]

>  <reported-property>
logD

>  <result>
-0.94

$$$$
>  <compound>
CN[C@@H](C)C(=O)N[C@H](C(=O)N[C@H]1CCCN(CCc2ccc(C)cc2)C1)C(C)(C)C

>  <reported-property>
logD

>  <result>
2.05

$$$$

Reported logD for Cc1ccc(S(=O)(=O)Nc2c(C(=O)N[C@@H](C)C(C)(C)C)c(C)nn2C2CCN(C)CC2)cc1 : what is it?
0.8

Next record, please: O=C(Nc1ccccc1)c1cc2ccccc2o1
3.44

* * *

assay: physchem; settings: octan-1-ol/water, pH 7.4, LogD7.4
reported-property: logD
Please state the value as a number alone, without comment.

These solved cases illustrate the format of a correct answer.
>  <compound>
O=C(CCc1ccccc1O)Nc1ccccc1

>  <logD>
2.71

$$$$
>  <compound>
O=C(NCc1ccccn1)c1ccc(Oc2ccccc2)cc1

>  <logD>
2.7

$$$$
>  <compound>
Cc1cc(Nc2ncc(F)c(-c3cnc(C)n3C(C)C)n2)ccc1C(=O)N(C)C

>  <logD>
2.86

$$$$
>  <compound>
O=S(=O)(Nc1nccs1)c1cc(Cl)ccc1Cl

>  <logD>
1.14

$$$$
>  <compound>
Nc1nc(Nc2cccc(Br)c2)c2[nH]cnc2n1

>  <logD>
3.04

$$$$

Need logD, item CC(C)C[C@H](N)c1nnc(S(=O)(=O)Cc2ccc(F)cc2)o1
1.11

Then what about the compound CC(c1cc2ccccc2o1)n1[nH]c(=O)c2[nH]c3cc(Cl)ccc3c(=O)c2c1=O (configuration not stated) ?
2.1

Now consider NC(=O)c1sc(-c2ccccc2)cc1N .
2.33

Queued: CC1(C)[C@@H]2CC[C@@]1(CS(=O)(=O)N1CCN(c3ccc(C#N)cn3)CC1)C(=O)C2
2.46

Here is the next compound: Cc1c(Sc2ccc(Cl)cc2)c2c(-c3cnccn3)cccc2n1CC(=O)O
0.03

Here is the next compound: O=C(N1CCN(c2ccncc2Cl)CC1)N1CCN(S(=O)(=O)c2ccc(C(F)(F)F)cc2)CC1
3.54

And for c1ccc(CC2NCCc3ccccc32)cc1 (configuration not stated) ?
1.89

Follow-up item: COC(=O)CCC(=O)Nc1ccc2c(c1)-c1ccccc1C(=O)C2=O
2.72

* * *

test: in vitro; details: SD, HW or BN, rat, plasma
reported-property: fraction unbound at 5 h
Lab note: record just the number, no unit beside it.

Consider the reported fraction unbound at 5 h for these compounds:
>  <compound>
CCS(=O)(=O)c1ccc(-c2cc(Cl)ccc2OCC(=O)O)c(F)c1

>  <fraction unbound at 5 h>
0.0568

$$$$
>  <compound>
COc1cccc2c1c(NS(=O)(=O)c1ccc(Cl)s1)nn2Cc1cccc(CNC(C)=O)c1

>  <fraction unbound at 5 h>
0.0028

$$$$
>  <compound>
CC(C)(C)OC(=O)N[C@H](Cc1ccccc1C(F)(F)F)C(=O)NCc1nc2cccnc2n1Cc1ccccc1

>  <fraction unbound at 5 h>
0.002

$$$$
>  <compound>
O=C(NCC12CC3CC(CC(C3)C1)C2)c1cc(CN2CCNCC2)ccc1Cl

>  <fraction unbound at 5 h>
0.062

$$$$
>  <compound>
CCN(CCO)C(=O)c1oc2cccnc2c1-c1cccc(C(F)(F)F)c1

>  <fraction unbound at 5 h>
0.139

$$$$
>  <compound>
Cc1ccc(-c2nnc(Nc3ccc(C(=O)N(C)C)cc3)c3ccccc23)cc1S(=O)(=O)N(C)C

>  <fraction unbound at 5 h>
0.0209

$$$$

Give the measured fraction unbound at 5 h of O=C(NCC1CCCCN1)c1cc(OCC(F)(F)F)ccc1OCC(F)(F)F (centres undefined) [FLECAINIDE] .
0.535

Lookup CN(C)CCC1CCN(c2cc(C(=O)NC[C@H]3CC[C@H](CNC(=O)OC(C)(C)C)CC3)c3ccccc3n2)CC1
0.04

Lookup Cc1nc2ccc(NS(=O)(=O)c3ccc(C)c(C)c3)cc2s1
0.0024

* * *

assay: physchem; details: octan-1-ol/water, pH 7.4, LogD7.4
reported-property: logD
# output: bare number, no unit

Answered examples (5):
>  <molecule>
CC(C)C(NC(=O)Cn1c(-c2ccccc2)ccc(NC(=O)NCc2ccccn2)c1=O)C(=O)C(F)(F)F (centres undefined)

>  <logD>
2.15

$$$$
>  <molecule>
COc1cc2c(Nc3ccc(F)cc3F)c(C(N)=O)cnc2cc1N1CCN(C)CC1

>  <logD>
1.75

$$$$
>  <molecule>
O=C(NS(=O)(=O)c1cccc(C(F)(F)F)c1)N1CCC(N2CCC(Oc3ccc(Cl)c(Cl)c3)CC2)CC1

>  <logD>
2.94

$$$$
>  <molecule>
COc1ccnc(CCc2nc3cc(Br)cnc3[nH]2)c1

>  <logD>
2.92

$$$$
>  <molecule>
CCC(c1nc2ccsc2c(=O)n1Cc1ccc(Cl)cc1)N(CCCN)C(=O)c1ccc(C)cc1 (centres undefined)

>  <logD>
2.32

$$$$

Fill in: logD of Cc1cc(Oc2ccnc(Nc3cccc(N4CCOCC4)c3)c2)c(-c2ccccn2)nc1C is ___
3.27

Same question, c1ccc(Nc2ccnc(Nc3ccccc3)n2)cc1 this time
4.06

// same read-out, input: Cc1cn([C@H]2CCCN(S(=O)(=O)c3ccc(O)c(Oc4cccc(C(F)(F)F)c4)c3)C2)c(=O)[nH]c1=O
2.27

Would you kindly repeat that for O=C(O)C(c1ccccc1)N1CCC(CN2CCC(Oc3ccc(Cl)c(Cl)c3)CC2)CC1 (centres undefined) ?
2.17
